- Tested on: HaCaT
- test: Anti-inflammatory activity in human HaCaT cells assessed as inhibition of LPS-induced TNF-alpha production at 12.5 uM after 24 hrs by ELISA relative to LPS alone
- Assay type: functional

{"compound": "CC(=O)OC[C@@]1(C)[C@H](O)CC[C@]2(C)C(CCC3=CC(O)OC3=O)=C(C)C(=O)C[C@@H]12 (some centres not stated)", "system": "HaCaT", "inhibition at 12.5 µM (%)": 35}
{"compound": "CO[C@@H]1C[C@@]2(CC[C@@]3(O2)[C@H](C)C(=O)C[C@H]2C(C)(C)[C@H](O)CC[C@@]23C)C(=O)O1", "system": "HaCaT", "inhibition at 12.5 µM (%)": 41.5}
{"compound": "CC(=O)O[C@@H]1CC[C@@]2(C)[C@@H](C(=O)[C@H](O)[C@@H](C)[C@]2(O)CCc2ccoc2)C1(C)C", "system": "HaCaT", "inhibition at 12.5 µM (%)": 15.6}
{"compound": "COC1C=C(CCC2=C(C)C(=O)C[C@H]3C(C)(C)[C@H](O)CC[C@]23C)C(=O)O1 (some centres not stated)", "system": "HaCaT", "inhibition at 12.5 µM (%)": 52}
{"compound": "C[C@@H]1C(=O)C[C@H]2C(C)(C)[C@H](O)CC[C@]2(C)[C@@]1(O)CCc1ccoc1", "system": "HaCaT", "inhibition at 12.5 µM (%)": 37}
{"compound": "CC(=O)OC[C@@]1(C)[C@H](O)CC[C@]2(C)C(CCc3ccoc3)=C(C)C(=O)C[C@@H]12", "system": "HaCaT", "inhibition at 12.5 µM (%)": 0}
{"compound": "CO[C@@H]1C[C@]2(CC[C@@]3(O2)[C@H](C)C(=O)C[C@H]2C(C)(C)[C@H](O)CC[C@@]23C)CO1", "system": "HaCaT", "inhibition at 12.5 µM (%)": 44}

====

- Tested on: HaCaT
- test: Anti-inflammatory activity in human HaCaT cells assessed as inhibition of LPS-induced TNF-alpha production at 25 uM after 24 hrs by ELISA relative to LPS alone
- Assay type: functional
reportedMetric: inhibition at 25 µM (%)

{"compound": "CC(=O)OC[C@@]1(C)[C@H](O)CC[C@]2(C)C(CCc3ccoc3)=C(C)C(=O)C[C@@H]12", "val": 25}
{"compound": "CO[C@@H]1C[C@@]2(CC[C@@]3(O2)[C@H](C)C(=O)C[C@H]2C(C)(C)[C@H](O)CC[C@@]23C)C(=O)O1", "val": 50.5}
{"compound": "CC1=C(CCc2ccoc2)[C@@]2(C)CC[C@@H](O)C(C)(C)[C@@H]2[C@H](O)C1=O", "val": 68}
{"compound": "CO[C@@H]1C[C@]2(CC[C@@]3(O2)[C@H](C)C(=O)C[C@H]2C(C)(C)[C@H](O)CC[C@@]23C)CO1", "val": 62.5}
{"compound": "CC(=O)O[C@@H]1CC[C@@]2(C)[C@@H](C(=O)[C@H](O)[C@@H](C)[C@]2(O)CCc2ccoc2)C1(C)C", "val": 62}
{"compound": "C[C@@H]1C(=O)C[C@H]2C(C)(C)[C@H](O)CC[C@]2(C)[C@@]1(O)CCc1ccoc1", "val": 62.5}
{"compound": "COC1C=C(CCC2=C(C)C(=O)C[C@H]3C(C)(C)[C@H](O)CC[C@]23C)C(=O)O1 (stereo not given in full)", "val": 68}
{"compound": "CO[C@H]1C[C@]2(CC[C@@]3(O2)[C@H](C)C(=O)[C@@H](O)[C@H]2C(C)(C)[C@H](O)CC[C@@]23C)CO1", "val": 55}
{"compound": "CC1=C(CCC2=CC(O)OC2=O)[C@@]2(C)CC[C@@H](O)C(C)(C)[C@@H]2CC1=O (stereo not given in full)", "val": 70.5}
{"compound": "CC(=O)OC[C@@]1(C)[C@H](O)CC[C@]2(C)C(CCC3=CC(O)OC3=O)=C(C)C(=O)C[C@@H]12 (stereo not given in full)", "val": 47.5}
